Measured values drawn from patent US9493537B2 for this set.

Assay: Biodistribution in B16/F1 melanoma-bearing C57 mice
Type: in vivo
Details: female, C57, mouse, spleen, iv, 0.037 MBq, total radioactivity, 24 h post-injection; read-out: Spleen uptake
EXPERIMENTAL READOUT: tissue uptake at 24 h

Recorded tissue uptake at 24 h (compound CCCC[C@H](NC(=O)CN1CCN(CC(=O)O)CCN(CC(=O)O)CCN(CC(=O)O)CC1)C(=O)N[C@H]1CC(=O)NCCCC[C@@H](C(N)=O)NC(=O)[C@H](Cc2c[nH]c3ccccc23)NC(=O)[C@H](CCCNC(=N)N)NC(=O)[C@@H](Cc2ccccc2)NC(=O)[C@H](Cc2c[nH]cn2)NC1=O [^111In-DOTA-Nle-CycMSHhex, metal not drawn] ): 0.32 %ID/g

###

Test: Biodistribution in B16/F1 melanoma-bearing C57 mice
Format: in vivo
Conditions: female, C57, mouse, pancreas, iv, 0.037 MBq, total radioactivity, 2 h post-injection; read-out: Pancreas uptake
EXPERIMENTAL READOUT: tissue uptake at 2 h
I'd appreciate it if you included the unit after the number.

Recorded tissue uptake at 2 h (compound CCCC[C@H](NC(=O)CN1CCN(CC(=O)O)CCN(CC(=O)O)CCN(CC(=O)O)CC1)C(=O)N[C@H]1CC(=O)NCCCC[C@@H](C(N)=O)NC(=O)[C@H](Cc2c[nH]c3ccccc23)NC(=O)[C@H](CCCNC(=N)N)NC(=O)[C@@H](Cc2ccccc2)NC(=O)[C@H](Cc2c[nH]cn2)NC1=O [^111In-DOTA-Nle-CycMSHhex, metal not drawn] ): 0.14 %ID/g

###

Experiment: Biodistribution in B16/F1 melanoma-bearing C57 mice
Assay type: in vivo
Details: female, C57, mouse, spleen, iv, total radioactivity, 2 h post-injection, L-lysine co-injection; read-out: Spleen uptake
EXPERIMENTAL READOUT: tissue uptake at 2 h (%ID/g)
Answers are plain numbers, in %ID/g.

Recorded tissue uptake at 2 h (molecule CCCC[C@H](NC(=O)CN1CCN(CC(=O)O)CCN(CC(=O)O)CCN(CC(=O)O)CC1)C(=O)N[C@H]1CC(=O)NCCCC[C@@H](C(N)=O)NC(=O)[C@H](Cc2c[nH]c3ccccc23)NC(=O)[C@H](CCCNC(=N)N)NC(=O)[C@@H](Cc2ccccc2)NC(=O)[C@H](Cc2c[nH]cn2)NC1=O [^111In-DOTA-Nle-CycMSHhex, metal not drawn] ): 0.43

###

Experiment: Biodistribution in B16/F1 melanoma-bearing C57 mice
Assay type: in vivo
Settings: female, C57, mouse, lung, iv, 0.037 MBq, total radioactivity, 24 h post-injection; read-out: Lung uptake
EXPERIMENTAL READOUT: tissue uptake at 24 h

Recorded tissue uptake at 24 h (compound CCCC[C@H](NC(=O)CN1CCN(CC(=O)O)CCN(CC(=O)O)CCN(CC(=O)O)CC1)C(=O)N[C@H]1CC(=O)NCCCC[C@@H](C(N)=O)NC(=O)[C@H](Cc2c[nH]c3ccccc23)NC(=O)[C@H](CCCNC(=N)N)NC(=O)[C@@H](Cc2ccccc2)NC(=O)[C@H](Cc2c[nH]cn2)NC1=O [^111In-DOTA-Nle-CycMSHhex, metal not drawn] ): 0.1 %ID/g

###

Experiment: Biodistribution in B16/F1 melanoma-bearing C57 mice
Type: in vivo
Conditions: female, C57, mouse, heart, iv, 0.037 MBq, total radioactivity, 0.5 h post-injection; read-out: Heart uptake
EXPERIMENTAL READOUT: tissue uptake at 0.5 h (%ID/g)
Numbers only, in %ID/g.

Recorded tissue uptake at 0.5 h (compound CCCC[C@H](NC(=O)CN1CCN(CC(=O)O)CCN(CC(=O)O)CCN(CC(=O)O)CC1)C(=O)N[C@H]1CC(=O)NCCCC[C@@H](C(N)=O)NC(=O)[C@H](Cc2c[nH]c3ccccc23)NC(=O)[C@H](CCCNC(=N)N)NC(=O)[C@@H](Cc2ccccc2)NC(=O)[C@H](Cc2c[nH]cn2)NC1=O [^111In-DOTA-Nle-CycMSHhex, metal not drawn] ): 1.24

###

Test: Biodistribution in B16/F1 melanoma-bearing C57 mice
Type: in vivo
Conditions: female, C57, mouse, brain, iv, total radioactivity, 2 h post-injection, NDP blockade; read-out: Brain uptake
EXPERIMENTAL READOUT: tissue uptake at 2 h (%ID/g)
Answers are plain numbers, in %ID/g.

Recorded tissue uptake at 2 h (compound CCCC[C@H](NC(=O)CN1CCN(CC(=O)O)CCN(CC(=O)O)CCN(CC(=O)O)CC1)C(=O)N[C@H]1CC(=O)NCCCC[C@@H](C(N)=O)NC(=O)[C@H](Cc2c[nH]c3ccccc23)NC(=O)[C@H](CCCNC(=N)N)NC(=O)[C@@H](Cc2ccccc2)NC(=O)[C@H](Cc2c[nH]cn2)NC1=O [^111In-DOTA-Nle-CycMSHhex, metal not drawn] ): 0.01

###

Assay: Biodistribution in B16/F1 melanoma-bearing C57 mice
Type: in vivo
Details: female, C57, mouse, spleen, iv, 0.037 MBq, total radioactivity, 0.5 h post-injection; read-out: Spleen uptake
EXPERIMENTAL READOUT: tissue uptake at 0.5 h (%ID/g)
Give bare numbers, in %ID/g.

Recorded tissue uptake at 0.5 h (molecule CCCC[C@H](NC(=O)CN1CCN(CC(=O)O)CCN(CC(=O)O)CCN(CC(=O)O)CC1)C(=O)N[C@H]1CC(=O)NCCCC[C@@H](C(N)=O)NC(=O)[C@H](Cc2c[nH]c3ccccc23)NC(=O)[C@H](CCCNC(=N)N)NC(=O)[C@@H](Cc2ccccc2)NC(=O)[C@H](Cc2c[nH]cn2)NC1=O [^111In-DOTA-Nle-CycMSHhex, metal not drawn] ): 1.09

###

Experiment: Biodistribution in B16/F1 melanoma-bearing C57 mice
Assay type: in vivo
Details: female, C57, mouse, skin, iv, 0.037 MBq, total radioactivity, 4 h post-injection; read-out: Skin uptake
EXPERIMENTAL READOUT: tissue uptake at 4 h (%ID/g)
One number for each entry, in %ID/g.

Recorded tissue uptake at 4 h (compound CCCC[C@H](NC(=O)CN1CCN(CC(=O)O)CCN(CC(=O)O)CCN(CC(=O)O)CC1)C(=O)N[C@H]1CC(=O)NCCCC[C@@H](C(N)=O)NC(=O)[C@H](Cc2c[nH]c3ccccc23)NC(=O)[C@H](CCCNC(=N)N)NC(=O)[C@@H](Cc2ccccc2)NC(=O)[C@H](Cc2c[nH]cn2)NC1=O [^111In-DOTA-Nle-CycMSHhex, metal not drawn] ): 0.53

###

Assay: Biodistribution in B16/F1 melanoma-bearing C57 mice
Assay type: in vivo
Conditions: female, C57, mouse, intestines, iv, 0.037 MBq, total radioactivity, 0.5 h post-injection; read-out: Intestines, percent injected dose
EXPERIMENTAL READOUT: tissue uptake dose at 0.5 h (%ID)
One number for each entry, in %ID.

Recorded tissue uptake dose at 0.5 h (molecule CCCC[C@H](NC(=O)CN1CCN(CC(=O)O)CCN(CC(=O)O)CCN(CC(=O)O)CC1)C(=O)N[C@H]1CC(=O)NCCCC[C@@H](C(N)=O)NC(=O)[C@H](Cc2c[nH]c3ccccc23)NC(=O)[C@H](CCCNC(=N)N)NC(=O)[C@@H](Cc2ccccc2)NC(=O)[C@H](Cc2c[nH]cn2)NC1=O [^111In-DOTA-Nle-CycMSHhex, metal not drawn] ): 2.16

###

Experiment: Biodistribution in B16/F1 melanoma-bearing C57 mice
Assay type: in vivo
Conditions: female, C57, mouse, pancreas, iv, total radioactivity, 2 h post-injection, NDP blockade; read-out: Pancreas uptake
Method: All the animal studies were conducted in compliance with Institutional Animal Care and Use Committee approval. The mice were housed five animals per cage in sterile micro-isolator cages in a temperature- and humidity-controlled room with a 12-h light/12-h dark schedule. […] Groups of 5 mice were sacrificed at 0.5, 2, 4 and 24 h post-injection, and tumors and organs of interest were harvested, weighed and counted. […] The tumor and organs of interest were harvested, weighed and counted. […]
EXPERIMENTAL READOUT: tissue uptake at 2 h (%ID/g)
Numbers only, in %ID/g.

Recorded tissue uptake at 2 h (molecule CCCC[C@H](NC(=O)CN1CCN(CC(=O)O)CCN(CC(=O)O)CCN(CC(=O)O)CC1)C(=O)N[C@H]1CC(=O)NCCCC[C@@H](C(N)=O)NC(=O)[C@H](Cc2c[nH]c3ccccc23)NC(=O)[C@H](CCCNC(=N)N)NC(=O)[C@@H](Cc2ccccc2)NC(=O)[C@H](Cc2c[nH]cn2)NC1=O [^111In-DOTA-Nle-CycMSHhex, metal not drawn] ): 0.12

###

Assay: Biodistribution in B16/F1 melanoma-bearing C57 mice
Format: in vivo
Conditions: female, C57, mouse, tumor and liver, iv, 0.037 MBq, total radioactivity, tumor/liver uptake ratio, times that of ^111In-DOTA-Nle-CycMSHhex, 4 h post-injection
Method: All the animal studies were conducted in compliance with Institutional Animal Care and Use Committee approval. The mice were housed five animals per cage in sterile micro-isolator cages in a temperature- and humidity-controlled room with a 12-h light/12-h dark schedule. […] Groups of 5 mice were sacrificed at 0.5, 2, 4 and 24 h post-injection, and tumors and organs of interest were harvested, weighed and counted. […] The tumor and organs of interest were harvested, weighed and counted. […]
Positions of bridges follow the written chain, without caps; N, C: chain ends. Non-standard residues stand in square brackets, D forms with d. Residues, ends and D or L forms follow the SMILES beside them. *: point of attachment. DOTA = O=C(O)CN1CCN(CC(=O)O)CCN(CC(=O)*)CCN(CC(=O)O)CC1; Nle = CCCC[C@H](N)C(=O)O
EXPERIMENTAL READOUT: tissue to tissue ratio at 4 h
Give bare numbers.

Recorded tissue to tissue ratio at 4 h (molecule CCCC[C@H](NC(=O)CNC(=O)CNC(=O)CN1CCN(CC(=O)O)CCN(CC(=O)O)CCN(CC(=O)O)CC1)C(=O)N[C@H]1CC(=O)NCCCC[C@@H](C(N)=O)NC(=O)[C@H](Cc2c[nH]c3ccccc23)NC(=O)[C@H](CCCNC(=N)N)NC(=O)[C@@H](Cc2ccccc2)NC(=O)[C@H](Cc2c[nH]cn2)NC1=O [^111In-DOTA-GGNle-CycMSHhex, metal not drawn] ({DOTA}-GG[Nle]DH[dF]RWK-NH2; lactam 4-9) ): 3.13
